Measured log10 IC50, listed per entry for reference.
target: GppNp-loaded HIS-KRAS (G12D, aa 1-169) / cRAF RBD (Homo sapiens, UniProt P01116, G12D); construct: GppNp-loaded HIS-KRAS (G12D, aa 1-169); assay: GTP-KRAS and cRAF interaction assay; details: HTRF, 2 hours at 25° C.
Sequence (P01116 1-169 isoform P01116-2 G12D): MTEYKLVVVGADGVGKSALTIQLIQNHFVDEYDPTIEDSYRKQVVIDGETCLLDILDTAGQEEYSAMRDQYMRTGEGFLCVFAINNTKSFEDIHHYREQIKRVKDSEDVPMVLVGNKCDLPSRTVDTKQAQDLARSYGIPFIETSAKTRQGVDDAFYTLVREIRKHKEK
On a log10 scale: recorded IC50, unit nM.

Problem: Report log10 IC50 for `C#Cc1cccc2cc(O)cc(-c3ccc4c(N5CC6CCC(C5)N6)nc(OCC5(CN6CCO[C@@H](C)C6)CC5)nc4c3F)c12` tested on GppNp-loaded HIS-KRAS (G12D, aa 1-169) / cRAF RBD (Homo sapiens, UniProt P01116, G12D).
Result: 1.84

Problem: Same for `C#Cc1cccc2cc(O)cc(-c3cc4nc(OCC5(CN6CCOCC6)CC5)nc(N5CC6CCC(C5)N6)c4cc3C)c12`
Result: 2.22

Problem: Same for `C#Cc1cccc2cc(O)cc(-c3c(CO)cc4c(N5CC6CCC(C5)N6)nc(OCC5(CN6CCOCC6)CC5)nc4c3F)c12`
Result: 1.87

Problem: Same for `C#Cc1cccc2cc(O)cc(-c3c(F)cc4c(N5CC6CCC(C5)N6)nc(OCC5(CN6CC[S+]([O-])CC6)CC5)nc4c3F)c12`
Result: 3.29

Problem: Same for Oc1cc(-c2c(Cl)cc3c(N4CC5CCC(C4)N5)nc(OCC45CCCN4C[C@H](F)C5)nc3c2F)c2c(Cl)cccc2c1 (stereo partly drawn)
Result: 1.93

Problem: Same for C#Cc1cccc2cc(O)cc(-c3c(C4CC4)cc4c(N5CC6CCC(C5)N6)nc(OCC5(CN6CCOCC6)CC5)nc4c3F)c12 (single isomer, unassigned) [Compound 38B]
Result: 1.12
